The measured values listed here are drawn from ChEMBL document CHEMBL5356972.

# EXPERIMENTAL_TARGET: UniProt Q15645
# Sequence (Q15645 whole entry): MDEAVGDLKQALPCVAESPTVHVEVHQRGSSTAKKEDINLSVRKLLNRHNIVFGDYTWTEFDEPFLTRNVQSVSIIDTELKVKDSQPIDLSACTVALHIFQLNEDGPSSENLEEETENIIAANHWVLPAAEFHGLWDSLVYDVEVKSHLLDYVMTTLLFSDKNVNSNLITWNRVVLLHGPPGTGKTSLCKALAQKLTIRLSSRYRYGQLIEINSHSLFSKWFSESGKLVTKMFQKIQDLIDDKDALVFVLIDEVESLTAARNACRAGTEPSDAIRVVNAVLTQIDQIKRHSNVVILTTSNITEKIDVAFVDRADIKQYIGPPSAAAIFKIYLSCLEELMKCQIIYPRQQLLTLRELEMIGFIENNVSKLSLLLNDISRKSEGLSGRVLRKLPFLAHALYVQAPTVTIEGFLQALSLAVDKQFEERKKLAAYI
REPORTED_METRIC: pKd
Numbers only, as −log10 of the molar value.

QUERY: Quick one: pKd for O=C1C2C3C=C(Br)C(O3)C2C(=O)N1c1ccc(Cc2ccncc2)cc1 (stereo unspecified) ?
RESULT: 3.83
